experimentalSystem: human organic cation transporter 3 (hOCT3) (Homo sapiens)
Construct: expressed in transfected cells; host or cells: HEK293
Sequence (O75751 whole entry): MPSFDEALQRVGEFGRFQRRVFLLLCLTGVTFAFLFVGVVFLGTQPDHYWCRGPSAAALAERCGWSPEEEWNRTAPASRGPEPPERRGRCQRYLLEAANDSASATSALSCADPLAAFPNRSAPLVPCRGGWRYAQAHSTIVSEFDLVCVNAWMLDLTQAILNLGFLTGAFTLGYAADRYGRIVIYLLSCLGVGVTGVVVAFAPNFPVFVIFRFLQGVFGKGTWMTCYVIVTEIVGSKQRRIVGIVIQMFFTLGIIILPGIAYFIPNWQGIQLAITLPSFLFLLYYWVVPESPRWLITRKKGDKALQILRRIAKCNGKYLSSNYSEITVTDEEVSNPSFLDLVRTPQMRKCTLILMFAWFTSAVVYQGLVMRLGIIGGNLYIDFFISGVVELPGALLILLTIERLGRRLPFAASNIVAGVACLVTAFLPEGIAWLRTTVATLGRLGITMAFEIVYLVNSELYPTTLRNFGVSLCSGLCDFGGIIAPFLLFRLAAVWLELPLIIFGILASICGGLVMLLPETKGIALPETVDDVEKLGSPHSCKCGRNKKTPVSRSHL
runDescription: Histamine incorporation experiment in HEK293 cells expressing hOCT3 (OCT3 inhibition activity)
Assay type: cell-based
reportedConditions: HEK293, 1 min; Compound Concentration 10 μM; no inhibitor = 100%; read-out: Histamine Incorporation Rate to Control (%)
endpointName: remaining activity at 10 µM (%)
Write the number in % without appending the unit.

NC(N)=Nc1cc(CSCC/C(N)=N/S(=O)(=O)C(F)(F)F)ccn1	36.7
NC(N)=Nc1nc(CSCCC(N)=NS(N)(=O)=O)cs1 [FAMOTIDINE, famotidine, reference compound]	92.4
NC(N)=Nc1nc(CSCCNC(=O)CO)cs1	56.6
NC(N)=Nc1nc(CCCC/C(N)=N/S(=O)(=O)C(F)(F)F)cs1	72.9
Cc1nc(CCCCc2csc(N=C(N)N)n2)[nH]c(=O)c1CCc1ccccc1	14.8
NC(N)=Nc1cccc(CSCC/C(N)=N/S(=O)(=O)C(F)(F)F)n1	50

Exam item: Request the reported remaining activity at 10 µM associated with `Cc1nc(CCSCc2cccc(N=C(N)N)n2)[nH]c(=O)c1CCc1ccccc1`
Marked response: 33.7

Exam item: Request the reported remaining activity at 10 µM associated with `Cc1nc(CCSCc2ccnc(N=C(N)N)c2)[nH]c(=O)c1CCc1ccccc1`
Marked response: 51.5
